Test system: P. falciparum stage V gametocytes
Design: BacTiter-Glo ATP luminescence viability of purified stage V gametocytes in 384-well plates, per cent inhibition versus DMSO
Conditions: 48 h, 5 µM; inhibitor
In all, about 13,000 compounds went through this assay and about 3,200 (25%) showed an effect of 50% or more. This is one part of the list.
Measured % Inhibition values are reported for all entries that follow.
// return numeric value only (unit: %, not printed)

>  <molecule>
COCCn1c(-c2cccc(Cl)c2)nn(-c2ccc([N+](=O)[O-])cc2Cl)c1=S

>  <measuredTarget>
P. falciparum stage V gametocytes

>  <% Inhibition [%]>
91.77

$$$$

Task item: Report measured % Inhibition; entry is CCCCCCc1cc2cc(-c3csc(C=Cc4ccccc4)n3)c(=O)oc2cc1O
Reply: -11.21

Task item: Report measured % Inhibition; entry is OC(CNC1CCCCC1)Cn1c2ccc(I)cc2c2cc(I)ccc21 (stereo not shown)
Reply: 101.6

Task item: Report measured % Inhibition; entry is CCN(CC)CCN(Cc1ccc(-c2ccc(C(F)(F)F)cc2)cc1)C(=O)CN1C(CCc2cccc(F)c2F)=NS(=O)(=O)c2ccccc21
Reply: 67.96

----------
System: P. falciparum stage V gametocytes
Parameters: BacTiter-Glo ATP luminescence viability of purified stage V gametocytes in 384-well plates, per cent inhibition versus DMSO
Settings: 48 h, 5 µM; inhibitor
About 3,200 (25%) of roughly 13,000 compounds showed an effect of 50% or more. The list shows a part of the results.
resultType: % Inhibition (%)
// return numeric value only (unit: %, not printed)

As a guide, the following entries are already answered.
>  <molecule>
CN1CCN=C1c1ccc(NC(=O)Nc2ccc(C3=NCCN3C)cc2)cc1

>  <resultType>
% Inhibition

>  <testResult>
15.96

$$$$
>  <molecule>
CC(C)NCc1ccc(-c2ccc(-c3nc4ccc(C(F)(F)F)cc4[nH]3)cc2)cc1

>  <resultType>
% Inhibition

>  <testResult>
-41.38

$$$$
>  <molecule>
O=C(Nc1ccccc1)Nc1ccc(-n2ccc(C(F)(F)F)n2)cc1

>  <resultType>
% Inhibition

>  <testResult>
-19.16

$$$$
>  <molecule>
Cn1nc(C(F)(F)F)c(-c2ccc(Br)cc2)c1NC(=O)Nc1ccc(F)cc1F

>  <resultType>
% Inhibition

>  <testResult>
44.22

$$$$
>  <molecule>
Cn1nc(C(F)(F)F)c(-c2ccc(F)cc2)c1NC(=O)Nc1ccc(F)cc1

>  <resultType>
% Inhibition

>  <testResult>
65.51

$$$$

Task item: Report measured % Inhibition; entry is O=C(/C=C/c1ccc(Cl)c(Cl)c1)NC1CCC(N2CCC(c3c[nH]c4ccccc34)CC2)CC1 (centres unmarked)
Reply: -27.83

Task item: Report measured % Inhibition; entry is COc1ccc(NC(=O)Nc2cccc(-c3cccc(-c4nc5ccc(F)cc5[nH]4)c3)c2)cc1
Reply: -8.23

Task item: Report measured % Inhibition; entry is COc1ccc(-c2c(C(F)(F)F)nn(C)c2NC(=O)Nc2ccc(F)cc2F)cc1
Reply: 71.46

----------
System: P. falciparum stage V gametocytes
Design: BacTiter-Glo ATP luminescence viability of purified stage V gametocytes in 384-well plates, per cent inhibition versus DMSO
Conditions: 48 h, 5 µM; inhibitor
Screen size: about 13,000 compounds; about 3,200 (25%) showed an effect of 50% or more. The list shows a part of the results.
Measured % Inhibition values are reported for all entries that follow.
// return numeric value only (unit: %, not printed)

As a guide, the following entries are already answered.
>  <compound>
Cc1cc(C)cc(NC(=S)NCCCCN2CCN(c3cccc(Cl)c3)CC2)c1

>  <measuredTarget>
P. falciparum stage V gametocytes

>  <% Inhibition [%]>
38.25

$$$$
>  <compound>
COCCCNc1nc2cc(OC)c(OC)cc2c2nc(-c3ccccc3)nn12

>  <measuredTarget>
P. falciparum stage V gametocytes

>  <% Inhibition [%]>
0.2335

$$$$
>  <compound>
CN(C)CCCN1CCN(C(=O)c2cc3cc(-c4ccccc4)ccc3n2S(=O)(=O)c2ccccc2)CC1

>  <measuredTarget>
P. falciparum stage V gametocytes

>  <% Inhibition [%]>
17.27

$$$$
>  <compound>
CC1CN(Cc2cccc(C#N)c2)CCN1c1ccc(NC(=O)c2cccs2)cc1 (stereo not shown)

>  <measuredTarget>
P. falciparum stage V gametocytes

>  <% Inhibition [%]>
-7.267

$$$$
>  <compound>
OCC1CCN(Cc2ccc(-c3ccc(-c4nc5ccccc5[nH]4)cc3)cc2)CC1

>  <measuredTarget>
P. falciparum stage V gametocytes

>  <% Inhibition [%]>
-51.35

$$$$

Task item: Report measured % Inhibition; entry is Oc1c(C(Nc2nc3ccccc3s2)c2ccc(OC(F)F)cc2)ccc2cccnc12 (stereo not shown)
Reply: 115.4
